# system_tested: Mcl-1/Bim interaction, recombinant human Mcl-1 (171-327) (Homo sapiens, UniProt Q07820)
# Construct: made in house
# Sequence (Q07820 171-327): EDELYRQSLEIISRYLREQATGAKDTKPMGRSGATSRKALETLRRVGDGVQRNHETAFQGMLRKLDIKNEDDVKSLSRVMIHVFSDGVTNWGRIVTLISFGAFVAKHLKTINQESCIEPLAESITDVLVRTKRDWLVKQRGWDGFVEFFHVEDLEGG
# test_protocol: Cell free Mcl-1: Bim Affinity Assay (Mcl-1 HTRF)
# Type: binding
# measurement_conditions: TR-FRET, 0.1 nM Mcl-1 (171-327), 0.05 nM biotin-Bim (51-76)
Lab note: anything with IC50 below 1 nM is marked Fulfilled; values at 1 nM or higher are marked Not fulfilled.

compound="C=CCN1CC/C=C/[C@H](O)[C@@H]2CC[C@H]2CN2C[C@@]3(CCCc4cc(Cl)ccc43)COc3ccc(cc32)C(=O)NS1(=O)=O [Example 42]" class=Fulfilled
compound="C[C@@H]1[C@@H](C)C/C=C/[C@H](OCC(=O)N2CCC(O)CC2)[C@@H]2CC[C@H]2CN2C[C@@]3(CCCc4cc(Cl)ccc43)COc3ccc(cc32)C(=O)NS1(=O)=O [Example 312]" class=Fulfilled
compound="CC[C@@H]1CC/C=C/[C@H](OCC2CCOCC2)[C@@H]2CC[C@H]2CN2C[C@@]3(CCCc4cc(Cl)ccc43)COc3ccc(cc32)C(=O)NS1(=O)=O [Example 983]" class="Not fulfilled"
compound="CC(C)C[C@H](O[C@H]1/C=C/C[C@H](C)[C@@H](C)S(=O)(=O)NC(=O)c2ccc3c(c2)N(C[C@@H]2CC[C@H]21)C[C@@]1(CCCc2cc(Cl)ccc21)CO3)C(=O)N(C)C (single isomer, unassigned) [Example 429]" class="Not fulfilled"
compound="CCOC[C@@H]1CC/C=C/[C@H](O)[C@@H]2CC[C@H]2CN2C[C@@]3(CCCc4cc(Cl)ccc43)COc3ccc(cc32)C(=O)NS1(=O)=O (single isomer, unassigned) [Example 439]" class=Fulfilled
compound="CC[C@@H]1CC/C=C/[C@H](OCCO)[C@@H]2CC[C@H]2CN2C[C@@]3(CCCc4cc(Cl)ccc43)COc3ccc(cc32)C(=O)NS1(=O)=O [Example 970]" class=Fulfilled
compound="CCN1[C@H](C)C/C=C\\[C@H](O)[C@@H]2CC[C@H]2CN2C[C@@]3(CCCc4cc(Cl)ccc43)COc3ccc(cc32)C(=O)NS1(=O)=O (single isomer, unassigned) [Example 60]" class="Not fulfilled"
compound="O=C1NS(=O)(=O)C[C@@H](CO)C/C=C/[C@@H](O)[C@@H]2CC[C@H]2CN2C[C@@]3(CCCc4cc(Cl)ccc43)COc3ccc1cc32 (single isomer, unassigned) [Example 1089]" class=Fulfilled
compound="O=C1NS(=O)(=O)CCCCCC[C@@H]2CC[C@H]2CN2C[C@@]3(CCCc4cc(Cl)ccc43)COc3ccc1cc32 [Example 1084]" class="Not fulfilled"
compound="COC(=O)C1CCN(C(=O)[C@H]2CC/C=C\\[C@H](O)[C@@H]3CC[C@H]3CN3C[C@@]4(CCCc5cc(Cl)ccc54)COc4ccc(cc43)C(=O)NS2(=O)=O)CC1 [Example 143]" class="Not fulfilled"

====

# system_tested: Mcl-1/Bim interaction, recombinant human Mcl-1 (171-327) (Homo sapiens, UniProt Q07820)
# Construct: made in house
# test_protocol: Cell free Mcl-1: Bim Affinity Assay (Mcl-1 HTRF)
# Type: binding
# measurement_conditions: TR-FRET, 0.1 nM Mcl-1 (171-327), 0.05 nM biotin-Bim (51-76)
pIC50: −log10 of the molar value.
So basically: pIC50 at 9 or higher? That is y. Lower than 9? That is n.

compound=C[C@@H]1CC/C=C/[C@H](OCCN2CCOCC2)[C@@H]2CC[C@H]2CN2C[C@@]3(CCCc4cc(Cl)ccc43)COc3ccc(cc32)C(=O)NS1(=O)=O class=y
compound="CC[C@@H]1C[C@H](C)/C=C/[C@H](O)[C@@H]2CC[C@H]2CN2C[C@@]3(CCCc4cc(Cl)ccc43)COc3ccc(cc32)C(=O)NS1(=O)=O (single isomer, unassigned)" class=y
compound=CNC(=O)CO[C@H]1/C=C/C[C@H](C)[C@@H](C)S(=O)(=O)NC(=O)c2ccc3c(c2)N(C[C@@H]2CC[C@H]21)C[C@@]1(CCCc2cc(Cl)ccc21)CO3 class=y
compound=CC[C@@H]1CC/C=C/[C@@H](OC)[C@@H]2CC[C@H]2CN2C[C@@]3(CCCc4cc(Cl)ccc43)COc3ccc(cc32)C(=O)NS1(=O)=O class=n
compound=CO[C@@H]1CCCCS(=O)(=O)NC(=O)c2ccc3c(c2)N(C[C@@H]2CC[C@H]21)C[C@@]1(CCCc2cc(Cl)ccc21)CO3 class=n
compound=CO[C@H]1/C=C/[C@H](CC#N)C[C@@H](C)S(=O)(=O)NC(=O)c2ccc3c(c2)N(C[C@@H]2CC[C@H]21)C[C@@]1(CCCc2cc(Cl)ccc21)CO3 class=y
compound="O=C1NS(=O)(=O)N2CCOC[C@H]2C/C=C/[C@H](O)[C@@H]2CC[C@H]2CN2C[C@@]3(CCCc4cc(Cl)ccc43)COc3ccc1cc32 (single isomer, unassigned)" class=n
compound="CC(=O)N1C/C=C/CS(=O)(=O)NC(=O)c2ccc3c(c2)N(C[C@@H]2CC[C@H]2C1)C[C@@]1(CCCc2cc(Cl)ccc21)CO3.CC(=O)N1C/C=C\\CS(=O)(=O)NC(=O)c2ccc3c(c2)N(C[C@@H]2CC[C@H]2C1)C[C@@]1(CCCc2cc(Cl)ccc21)CO3 (mixture of isomers)" class=n
compound="CO[C@H]1/C=C/C[C@@H]2COC[C@H]2S(=O)(=O)NC(=O)c2ccc3c(c2)N(C[C@@H]2CC[C@H]21)C[C@@]1(CCCc2cc(Cl)ccc21)CO3 (single isomer, unassigned)" class=y
compound=C[C@@H]1[C@@H](C)C/C=C/C(=O)[C@@H]2CC[C@H]2CN2C[C@@]3(CCCc4cc(Cl)ccc43)COc3ccc(cc32)C(=O)NS1(=O)=O class=n
compound="CCOC[C@H]1CC/C=C/[C@H](O)[C@@H]2CC[C@H]2CN2C[C@@]3(CCCc4cc(Cl)ccc43)COc3ccc(cc32)C(=O)NS1(=O)=O (single isomer, unassigned)" class=n
compound="COCC[C@@H]1CC/C=C/[C@H](O)[C@@H]2CC[C@H]2CN2C[C@@]3(CCCc4cc(Cl)ccc43)COc3ccc(cc32)C(=O)NS1(=O)=O (single isomer, unassigned)" class=y
compound=O=C1NS(=O)(=O)CCC/C=C/[C@@H](OCc2nccs2)[C@@H]2CC[C@H]2CN2C[C@@]3(CCCc4cc(Cl)ccc43)COc3ccc1cc32 class=n
compound=C[C@@H]1[C@@H](C)C/C=C/[C@H](OCC(=O)N(C)C)[C@@H]2CC[C@H]2CN2C[C@@]3(CCCc4cc(Cl)ccc43)COc3ccc(cc32)C(=O)NS1(=O)=O class=y

// provenance: patent US12091425B2
